# Species on record: Mus musculus
# Experiment: Inhibitory concentration of compound on nitric oxide (NO) production in lipopolysaccharide activated mouse peritoneal macrophages
# Type: functional
# Conditions Used: read-out: IC50
pIC50: −log10 of the molar value.
Measure: pIC50

compound="C=C[C@H](OC(C)=O)c1ccc(OC(C)=O)cc1 [1'-ACETOXYCHAVICOL ACETATE]" observed_measurement=5.64

1. CC(=O)OC/C=C/c1ccc(OC(C)=O)cc1
2. N=C(N)NCCSSCCNC(=N)N [GUANIDINOETHYLDISULFIDE]
IN: Sort 1 and 2 by pIC50 descending and give the first. Use the label to indicate which entry you chose.
OUT: 2

----------
# Species on record: Mus musculus
# Experiment: Inhibitory concentration of compound on nitric oxide (NO) production in lipopolysaccharide activated mouse peritoneal macrophages
# Type: functional
# Conditions Used: read-out: IC50
pIC50: −log10 of the molar value.
Measure: pIC50

molecule=C=C[C@H](O)c1ccc(OC(C)=O)cc1 measure=pIC50 observed_measurement="< 4.00"
molecule="C=CC(O)c1cccc(O)c1 (configuration not stated)" measure=pIC50 observed_measurement="< 4.00"
molecule=C=CCc1ccc(O[C@@H]2O[C@H](CO)[C@@H](O)[C@H](O)[C@H]2O)cc1 measure=pIC50 observed_measurement="< 4.00"
molecule=O=C(O)/C=C/c1ccc(O)c(O)c1 measure=pIC50 observed_measurement="< 4.00"
molecule=O=C(O)/C=C/c1cccc(O)c1 measure=pIC50 observed_measurement="< 4.00"

In plain terms, C=CCC(O)c1ccc(O)cc1 (configuration not stated) has a documented pIC50 of < 4.00

In plain terms, C=CC(OC(C)=O)c1cccc(OC(C)=O)c1 (configuration not stated) has a documented pIC50 of < 4.00

----------
# Species on record: Mus musculus
# Experiment: Inhibitory concentration of compound on nitric oxide (NO) production in lipopolysaccharide activated mouse peritoneal macrophages
# Assay type: functional
# Conditions Used: read-out: IC50
pIC50: −log10 of the molar value.
# pIC50 values compiled below

compound=CC[C@H](O)c1ccccc1 observed_measurement="< 4.00"
compound=COc1ccc(/C=C/C(=O)O)cc1 observed_measurement="< 4.00"

// next item, pIC50 requested
In plain terms, C=CC(O)c1ccccc1O (stereo not drawn) has a documented pIC50 of < 4.00
